Origin of values: patent US12202835B2

Recorded pIC50, one value per entry.
ASSAYED SYSTEM: TRKA kinase (Homo sapiens (Human))
Sequence (P04629 33-796): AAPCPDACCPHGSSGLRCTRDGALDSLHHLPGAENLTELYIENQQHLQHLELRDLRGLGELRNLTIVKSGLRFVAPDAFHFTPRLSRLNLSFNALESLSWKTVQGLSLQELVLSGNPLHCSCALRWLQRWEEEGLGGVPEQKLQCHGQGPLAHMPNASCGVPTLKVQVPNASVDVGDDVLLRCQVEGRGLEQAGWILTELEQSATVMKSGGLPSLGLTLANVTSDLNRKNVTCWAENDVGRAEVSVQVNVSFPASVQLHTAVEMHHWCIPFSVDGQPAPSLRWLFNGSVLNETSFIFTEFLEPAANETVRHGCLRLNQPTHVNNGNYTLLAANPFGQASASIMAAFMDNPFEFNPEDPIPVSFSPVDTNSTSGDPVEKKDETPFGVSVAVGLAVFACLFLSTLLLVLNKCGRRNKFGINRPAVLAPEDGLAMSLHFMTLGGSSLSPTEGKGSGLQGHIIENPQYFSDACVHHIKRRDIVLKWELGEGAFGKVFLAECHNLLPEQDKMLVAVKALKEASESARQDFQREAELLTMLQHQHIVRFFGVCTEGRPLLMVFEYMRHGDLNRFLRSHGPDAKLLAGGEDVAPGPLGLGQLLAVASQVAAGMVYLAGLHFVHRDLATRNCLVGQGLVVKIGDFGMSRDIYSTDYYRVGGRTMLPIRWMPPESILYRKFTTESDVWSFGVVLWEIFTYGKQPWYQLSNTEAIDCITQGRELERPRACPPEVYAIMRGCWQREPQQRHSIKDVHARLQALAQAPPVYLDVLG
pIC50: −log10 of the molar value.
QUANTITY KIND: pIC50

INSERT INTO measurements (compound_string, data_value) VALUES
  ('Cn1cc(C(=O)Nc2ccc(Oc3ccnc4cc(OCCCN5CCCCC5)c5c(c34)OCCO5)cc2Cl)c(=O)n(-c2ccc(F)cc2)c1=O', '> 7.30'),
  ('CCn1cc(C(=O)Nc2cc(F)c(Oc3ccnc4cc(OCCOC)c5c(c34)OCCO5)cc2C)c(=O)n(-c2ccc(F)cc2)c1=O', '> 7.30'),
  ('CCOc1ccn(-c2ccc(Cl)cc2)c(=O)c1C(=O)Nc1ccc(Oc2ccnc3cc(OC)c4c(c23)OCCO4)c(F)c1', '> 7.30'),
  ('CCOc1ccn(-c2ccc(F)cc2)c(=O)c1C(=O)Nc1ccc(Oc2ccnc3cc(OC(C)C)c4c(c23)OCCO4)c(F)c1', '6.30 to 7.30'),
  ('CCOc1ccn(-c2ccc(F)cc2)c(=O)c1C(=O)Nc1ccc(Oc2ccnc3ccc4c(c23)OCCO4)cc1F', '> 7.30'),
  ('COc1cc2nccc(Oc3ccc(NC(=O)c4cn(C(C)C)c(=O)n(-c5ccc(Cl)cc5)c4=O)cc3F)c2c2c1OCCO2', '5.30 to 6.30');

* * *

IC50 values recorded for TRKA kinase (Homo sapiens (Human))
QUANTITY KIND: IC50

INSERT INTO results (compound_string, data_value) VALUES
  ('CCn1cc(C(=O)Nc2ccc(Oc3ccnc4cc(OCCCN5CCOCC5)c5c(c34)OCCO5)c(F)c2)c(=O)n(-c2ccc(F)cc2)c1=O', '< 50 nM'),
  ('CC(C)n1cc(C(=O)Nc2ccc(Oc3ccnc4cc(OCCCN5CCS(=O)(=O)CC5)c5c(c34)OCCO5)c(F)c2)c(=O)n(-c2ccc(F)cc2)c1=O', '< 50 nM'),
  ('CCn1cc(C(=O)Nc2ccc(Oc3ccnc4ccc5c(c34)OCCO5)c(F)c2)c(=O)n(-c2ccc(F)cc2)c1=O', '50 to 500 nM');

* * *

IC50 values recorded for c-MET kinase (Homo sapiens (Human))
QUANTITY KIND: IC50

INSERT INTO assay_data (compound_string, data_value) VALUES
  ('CC(C)n1cc(C(=O)Nc2ccc(Oc3ccnc4cc(OCCCN5CCCC5)c5c(c34)OCCO5)c(F)c2)c(=O)n(-c2ccc(F)cc2)c1=O', '≤ 50 nM'),
  ('COc1cc2nccc(Oc3cc(Cl)c(NC(=O)c4cn(C)c(=O)n(-c5ccc(F)cc5)c4=O)cc3F)c2c2c1OCCO2', '≤ 50 nM'),
  ('COc1ccn(-c2ccc(F)cc2)c(=O)c1C(=O)Nc1ccc(Oc2ccnc3ccc4c(c23)OCCO4)cc1', '50 to 500 nM'),
  ('CC(C)n1cc(C(=O)Nc2ccc(Oc3ccnc4cc(OCCCN5CCC(C)(O)CC5)c5c(c34)OCCO5)c(F)c2)c(=O)n(-c2ccc(F)cc2)c1=O', '≤ 50 nM'),
  ('CCOc1ccn(-c2ccc(F)cc2)c(=O)c1C(=O)Nc1ccc(Oc2ccnc3cc(OC(C)C)c4c(c23)OCCO4)c(F)c1', '≤ 50 nM'),
  ('COc1cc2nccc(Oc3ccc(NC(=O)c4cn(C(C)C)c(=O)n(-c5ccc(F)cc5)c4=O)cc3F)c2c2c1OCCO2', '≤ 50 nM');

* * *

IC50 values recorded for MER kinase (Homo sapiens (Human))
QUANTITY KIND: IC50

INSERT INTO results (compound_string, assayed_system, quantity_kind, data_value) VALUES
  ('CC(C)n1cc(C(=O)Nc2ccc(Oc3ccnc4cc(OCCCN(C)C5CCC5)c5c(c34)OCCO5)c(F)c2)c(=O)n(-c2ccc(F)cc2)c1=O', 'MER kinase (Homo sapiens (Human))', 'IC50', '≤ 50 nM'),
  ('COc1cc2nccc(Oc3ccc(NC(=O)c4cn(C)c(=O)n(-c5ccc(F)cc5)c4=O)cc3F)c2c2c1OCCO2', 'MER kinase (Homo sapiens (Human))', 'IC50', '≤ 50 nM'),
  ('COc1ccn(-c2ccc(F)cc2)c(=O)c1C(=O)Nc1ccc(Oc2ccnc3cc(OCCCN4CCCCC4)c4c(c23)OCCO4)c(F)c1', 'MER kinase (Homo sapiens (Human))', 'IC50', '≤ 50 nM'),
  ('COc1ccn(-c2ccc(F)cc2)c(=O)c1C(=O)Nc1ccc(Oc2ccnc3ccc4c(c23)OCCO4)cc1F', 'MER kinase (Homo sapiens (Human))', 'IC50', '≤ 50 nM'),
  ('CCOc1ccn(-c2ccc(F)cc2)c(=O)c1C(=O)Nc1ccc(Oc2ccnc3cc(OCCCN4CCC(C)(O)CC4)c4c(c23)OCCO4)c(F)c1', 'MER kinase (Homo sapiens (Human))', 'IC50', '≤ 50 nM'),
  ('COc1cc2nccc(Oc3ccc(NC(=O)c4cn(CCO)c(=O)n(-c5ccc(F)cc5)c4=O)cc3F)c2c2c1OCCO2', 'MER kinase (Homo sapiens (Human))', 'IC50', '≤ 50 nM'),
  ('COc1cc2nccc(Oc3ccc(NC(=O)c4cn(C(C)C)c(=O)n(C5CCCCC5)c4=O)cc3F)c2c2c1OCCO2', 'MER kinase (Homo sapiens (Human))', 'IC50', '50 to 500 nM'),
  ('Cn1cc(C(=O)Nc2ccc(Oc3ccnc4cc(OC5CCOCC5)c5c(c34)OCCO5)c(F)c2)c(=O)n(-c2ccc(F)cc2)c1=O', 'MER kinase (Homo sapiens (Human))', 'IC50', '≤ 50 nM'),
  ('CCOc1cc2nccc(Oc3ccc(NC(=O)c4c(OCC)ccn(-c5ccc(F)cc5)c4=O)c(Cl)c3)c2c2c1OCCO2', 'MER kinase (Homo sapiens (Human))', 'IC50', '≤ 50 nM'),
  ('Cn1cc(C(=O)Nc2ccc(Oc3ccnc4cc(OCCCN5CCCCC5)c5c(c34)OCCO5)cc2Cl)c(=O)n(-c2ccc(F)cc2)c1=O', 'MER kinase (Homo sapiens (Human))', 'IC50', '≤ 50 nM'),
  ('CCOc1cc2nccc(Oc3ccc(NC(=O)c4cn(C(C)C)c(=O)n(-c5ccc(F)cc5)c4=O)cc3F)c2c2c1OCCO2', 'MER kinase (Homo sapiens (Human))', 'IC50', '≤ 50 nM'),
  ('O=C(Nc1ccc(Oc2ccnc3cc(OCCCN4CCOCC4)c4c(c23)OCCO4)cc1Cl)c1cccn(-c2ccc(F)cc2)c1=O', 'MER kinase (Homo sapiens (Human))', 'IC50', '≤ 50 nM'),
  ('COCCOc1cc2nccc(Oc3ccc(NC(=O)c4c(OC)ccn(-c5ccc(F)cc5)c4=O)cc3F)c2c2c1OCCO2', 'MER kinase (Homo sapiens (Human))', 'IC50', '≤ 50 nM'),
  ('COc1cc2nccc(Oc3ccc(NC(=O)c4cn(C(C)C)c(=O)n(-c5ccc(Cl)cc5)c4=O)cc3F)c2c2c1OCCO2', 'MER kinase (Homo sapiens (Human))', 'IC50', '50 to 500 nM'),
  ('CCOc1ccn(-c2ccc(F)cc2)c(=O)c1C(=O)Nc1ccc(Oc2ccnc3ccc4c(c23)OCCO4)cc1F', 'MER kinase (Homo sapiens (Human))', 'IC50', '≤ 50 nM'),
  ('CC(C)n1cc(C(=O)Nc2ccc(Oc3ccnc4cc(OC5COC5)c5c(c34)OCCO5)c(F)c2)c(=O)n(-c2ccc(F)cc2)c1=O', 'MER kinase (Homo sapiens (Human))', 'IC50', '≤ 50 nM'),
  ('O=C(Nc1ccc(Oc2ccnc3cc(OCCCN4CCCCC4)c4c(c23)OCCO4)c(F)c1)c1cccn(-c2ccc(F)cc2)c1=O', 'MER kinase (Homo sapiens (Human))', 'IC50', '≤ 50 nM'),
  ('COc1cc2nccc(Oc3ccc(NC(=O)c4cn(C(C)C)c(=O)n(-c5ccc(C)cc5)c4=O)cc3F)c2c2c1OCCO2', 'MER kinase (Homo sapiens (Human))', 'IC50', '≤ 50 nM'),
  ('COCCN(C)CCCOc1cc2nccc(Oc3ccc(NC(=O)c4cn(C(C)C)c(=O)n(-c5ccc(F)cc5)c4=O)cc3F)c2c2c1OCCO2', 'MER kinase (Homo sapiens (Human))', 'IC50', '≤ 50 nM'),
  ('COc1ccn(-c2ccc(F)cc2)c(=O)c1C(=O)Nc1ccc(Oc2ccnc3cc(OCCCC#N)c4c(c23)OCCO4)cc1Cl', 'MER kinase (Homo sapiens (Human))', 'IC50', '≤ 50 nM'),
  ('Cn1cc(C(=O)Nc2ccc(Oc3ccnc4cc(OCCCC#N)c5c(c34)OCCO5)cc2Cl)c(=O)n(-c2ccc(F)cc2)c1=O', 'MER kinase (Homo sapiens (Human))', 'IC50', '500 to 5000 nM'),
  ('CCOc1cn(-c2ccc(F)cc2C)nc1C(=O)Nc1ccc(Oc2ncnc3cc(OC)c4c(c23)OCCO4)c(F)c1', 'MER kinase (Homo sapiens (Human))', 'IC50', '500 to 5000 nM'),
  ('COc1ccn(-c2ccc(F)cc2)c(=O)c1C(=O)Nc1ccc(Oc2ccnc3cc(OCCCN4CCCCC4)c4c(c23)OCCO4)cc1Cl', 'MER kinase (Homo sapiens (Human))', 'IC50', '≤ 50 nM'),
  ('O=C(Nc1ccc(Oc2ccnc3ccc4c(c23)OCCO4)cc1F)c1cccn(-c2ccc(F)cc2)c1=O', 'MER kinase (Homo sapiens (Human))', 'IC50', '≤ 50 nM'),
  ('COCCOc1cc2nccc(Oc3ccc(NC(=O)c4cccn(-c5ccc(F)cc5)c4=O)cc3F)c2c2c1OCCO2', 'MER kinase (Homo sapiens (Human))', 'IC50', '≤ 50 nM'),
  ('COc1cc2ncnc(Oc3ccc(NC(=O)c4cn(C)c(=O)n(-c5ccc(F)cc5)c4=O)cc3F)c2c2c1OCCO2', 'MER kinase (Homo sapiens (Human))', 'IC50', '≤ 50 nM');
